- ASSAY TARGET: human Gal-1 (hGal-1)
- Sequence (P09382 2-135 limits assumed): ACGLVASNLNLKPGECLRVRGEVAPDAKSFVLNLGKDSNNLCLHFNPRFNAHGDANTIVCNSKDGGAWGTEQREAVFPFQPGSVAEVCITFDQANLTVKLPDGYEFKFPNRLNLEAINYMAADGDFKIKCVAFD
- MEASUREMENT DESCRIPTION: Competitive binding assay: binding of biotinylated hGal-1 to microplate-adsorbed asialofetuin (ASF)
- TEST CONTEXT: Activities on hGal-1; mean values of several measurements
QUANTITY KIND: IC50 (µM)

CO[C@@H]1[C@@H](n2cc(-c3cc(F)c(F)c(F)c3)nn2)[C@@H](O)[C@@H](CO)O[C@@H]1Cc1cc(C2CCNC(=O)C2)no1 (stereo partly drawn) [Ex 1.92] :: 4.91
CO[C@@H]1[C@@H](n2cc(-c3ccc4ccccc4c3)nn2)[C@@H](O)[C@@H](CO)O[C@@H]1CC1CC(C2CCN(C(=O)OC(C)(C)C)CC2)=NO1 (stereo partly drawn) [Ex 1.304] :: 3.91
CC(=O)N1CCC(C2=NO[C@@H](C[C@H]3O[C@H](CO)[C@H](O)[C@H](n4cc(-c5cc(F)c(F)c(F)c5)nn4)[C@H]3O)C2)CC1 [Example 3.10] :: 5.5

----------
- ASSAY TARGET: human Gal-1 (hGal-1)
- MEASUREMENT DESCRIPTION: Competitive binding assay: binding of biotinylated hGal-1 to microplate-adsorbed asialofetuin (ASF)
- TEST CONTEXT: Activities on hGal-1; mean values of several measurements
QUANTITY KIND: IC50 (µM)

CO[C@@H]1[C@@H](n2cc(-c3cc(F)c(F)c(F)c3)nn2)[C@@H](O)[C@@H](CO)O[C@@H]1Cc1cc(C2(O)CCCN(C(C)=O)CC2)on1 (mixture of isomers) :: 4.47
CO[C@@H]1[C@@H](n2cc(-c3cccc(F)c3)nn2)[C@@H](O)[C@@H](CO)O[C@@H]1Cc1cc(C2CCN(C(=O)OC(C)(C)C)CC2)no1 :: 0.14
CO[C@@H]1[C@@H](n2cc(-c3cc(F)c(F)c(F)c3)nn2)[C@@H](O)[C@@H](CO)O[C@@H]1Cc1cc(C2CCN(S(=O)(=O)N3CCOCC3)CC2)on1 :: 1.35
CO[C@@H]1[C@@H](n2cc(-c3ccc(C)c(F)c3F)nn2)[C@@H](O)[C@@H](CO)O[C@@H]1Cc1cc(C2(C)CCOCC2)no1 :: 5.85

[a] CS(=O)(=O)N1CCC(c2cc(C[C@H]3O[C@H](CO)[C@H](O)[C@H](n4cc(-c5cc(F)c(F)c(F)c5)nn4)[C@H]3O)no2)CC1
[b] CO[C@@H]1[C@@H](n2cc(-c3ccc(C)c(F)c3F)nn2)[C@@H](O)[C@@H](CO)O[C@@H]1Cc1cc(C(O)(c2ccccn2)C2CC2)on1 (stereo partly shown)
[c] CCOC(=O)N1CCC(N2CN(C[C@H]3O[C@H](CO)[C@H](O)[C@H](n4cc(-c5cc(F)c(F)c(F)c5)nn4)[C@H]3OC)CC2=O)CC1
Put the compounds in ascending order of IC50. Show the ranking through the labels, in the order asked for.
c, a, b
(c: 0.092 µM, a: 1.23 µM, b: 9.69 µM)

----------
- ASSAY TARGET: human Gal-1 (hGal-1)
- MEASUREMENT DESCRIPTION: Competitive binding assay: binding of biotinylated hGal-1 to microplate-adsorbed asialofetuin (ASF)
- TEST CONTEXT: Activities on hGal-1; mean values of several measurements
pIC50: −log10 of the molar value.
QUANTITY KIND: pIC50

CC(C)(CO)c1cc(C[C@H]2O[C@H](CO)[C@H](O)[C@H](n3cc(-c4ccc(F)c(F)c4F)nn3)[C@H]2OCC(=O)O)on1 :: 6.05
CO[C@@H]1[C@@H](n2cc(-c3cc(F)c(F)c(F)c3)nn2)[C@@H](O)[C@@H](CO)O[C@@H]1Cn1cc(C2CCN(C(=O)NC3CC3)CC2)nn1 :: 6.05
CO[C@@H]1[C@@H](n2cc(-c3cccc(F)c3F)nn2)[C@@H](O)[C@@H](CO)O[C@@H]1Cc1cc(C(C)(C)C)on1 :: 5.98
CCO[C@@H]1[C@@H](n2cc(-c3cc(F)c(F)c(F)c3)nn2)[C@@H](O)[C@@H](CO)O[C@@H]1CC1CC(C2CCN(C(=O)OC(C)(C)C)CC2)=NO1 (mixture of isomers) :: 5.89

----------
- ASSAY TARGET: human Gal-3 (hGal-3) (Homo sapiens (Human), UniProt P17931)
- Sequence (P17931 whole entry): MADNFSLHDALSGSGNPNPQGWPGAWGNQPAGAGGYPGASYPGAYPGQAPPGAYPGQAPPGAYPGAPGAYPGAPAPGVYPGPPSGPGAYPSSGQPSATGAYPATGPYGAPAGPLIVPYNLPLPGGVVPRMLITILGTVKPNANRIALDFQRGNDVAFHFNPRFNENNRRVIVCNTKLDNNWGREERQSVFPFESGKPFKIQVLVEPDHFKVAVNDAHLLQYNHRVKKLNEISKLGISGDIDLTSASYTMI
- MEASUREMENT DESCRIPTION: Competitive binding assay: binding of biotinylated hGal-3 to microplate-adsorbed asialofetuin (ASF)
- TEST CONTEXT: Activity on hGal-3; mean values of several measurements
QUANTITY KIND: IC50 (µM)

CCOC(=O)N1CCC(c2cc(C[C@H]3O[C@H](CO)[C@H](O)[C@H](n4cc(-c5ccc(C)c(F)c5)nn4)[C@H]3OC)no2)CC1 :: 0.067
CO[C@@H]1[C@@H](n2cc(-c3cc(F)c(F)c(F)c3)nn2)[C@@H](O)[C@@H](CO)O[C@@H]1Cc1cc(C2CCN(C(=O)OC(C)(C)C)CC2)on1 :: 0.063
CO[C@@H]1[C@@H](n2cc(-c3ccc(C)c(F)c3F)nn2)[C@@H](O)[C@@H](CO)O[C@@H]1Cc1cc(C2CCCC2)on1 :: 0.1

[a] CO[C@@H]1[C@@H](n2cc(-c3ccc(F)c(F)c3F)nn2)[C@@H](O)[C@@H](CO)O[C@@H]1Cc1cc(C(C)(C)O)no1
[b] CCC(=O)O[C@@H]1[C@@H](n2cc(-c3cc(F)c(F)c(F)c3)nn2)[C@@H](O)[C@@H](CO)O[C@@H]1Cc1cc(C2CCNCC2)on1
Select one: a or b . Criterion: greater recorded IC50. Could you answer with the label of the item you picked?
b

----------
For reference, IC50 measured on human Gal-3 (hGal-3) (Homo sapiens (Human)):
QUANTITY KIND: IC50 (nM)

CO[C@@H]1[C@@H](n2cc(-c3ccc(C)c(F)c3F)nn2)[C@@H](O)[C@@H](CO)O[C@@H]1Cc1cc(C2CCOCC2)on1 :: 85
CO[C@@H]1[C@@H](n2cc(-c3ccc(Cl)c(F)c3F)nn2)[C@@H](O)[C@@H](CO)O[C@@H]1Cc1cc(C2(C)COC2)no1 :: 63

[A] CO[C@@H]1[C@@H](n2cc(-c3ccc(Br)c(F)c3)nn2)[C@@H](O)[C@@H](CO)O[C@@H]1Cc1cc(C2CCN(C(=O)OC(C)(C)C)CC2)on1
[B] CCOC(C)(C)c1cc(C[C@H]2O[C@H](CO)[C@H](O)[C@H](n3cc(-c4ccc(C)c(F)c4F)nn3)[C@H]2OC)on1
Look at A and B . Which one has the lower recorded IC50 number? Respond with the label that goes with your answer.
B

----------
- ASSAY TARGET: human Gal-1 (hGal-1)
- MEASUREMENT DESCRIPTION: Competitive binding assay: binding of biotinylated hGal-1 to microplate-adsorbed asialofetuin (ASF)
- TEST CONTEXT: Activities on hGal-1; mean values of several measurements
QUANTITY KIND: IC50 (nM)

CO[C@@H]1[C@@H](n2cc(-c3cc(F)c(F)c(F)c3)nn2)[C@@H](O)[C@@H](CO)O[C@@H]1CC1CN(C2CCN(C(=O)OC(C)(C)C)CC2)C(=O)O1 (mixture of isomers) [Example 5.09] :: 460

[A] CCC(=O)O[C@@H]1[C@@H](n2cc(-c3cc(F)c(F)c(F)c3)nn2)[C@@H](O)[C@@H](CO)O[C@@H]1Cc1cc(C2CCNCC2)on1 [Example 2.18]
[B] CC(=O)O[C@@H]1[C@@H](n2cc(-c3cc(F)c(F)c(F)c3)nn2)[C@@H](O)[C@@H](CO)O[C@@H]1Cc1cc(C2CCN(C(=O)OC(C)(C)C)CC2)on1 [Ex 1.49]
[C] CO[C@@H]1[C@@H](n2cc(-c3ccc(F)c(F)c3F)nn2)[C@@H](O)[C@@H](CO)O[C@@H]1Cc1cc(C2(O)CCCCC2)on1 [Ex 1.233]
Arrange the 3 molecules from largest to smallest IC50. // ordering of labels required in reply
A, B, C
(A: 6300 nM, B: 2450 nM, C: 1330 nM)

----------
- ASSAY TARGET: human Gal-1 (hGal-1)
- MEASUREMENT DESCRIPTION: Competitive binding assay: binding of biotinylated hGal-1 to microplate-adsorbed asialofetuin (ASF)
- TEST CONTEXT: Activities on hGal-1; mean values of several measurements
QUANTITY KIND: IC50 (µM)

[a] OC[C@H]1O[C@H](Cc2cc(C3CCCC3)on2)[C@H](O)[C@@H](n2cc(-c3cc(F)c(F)c(F)c3)nn2)[C@H]1O [Ex 1.57]
[b] CO[C@@H]1[C@@H](n2cc(-c3ccc(F)c(F)c3F)nn2)[C@@H](O)[C@@H](CO)O[C@@H]1Cc1cc(C2(C)CCCC2)no1 [Ex 1.287]
When their IC50 values are compared, which is larger, a or b ? State your choice using its label.
a
(a: 12.5 µM, b: 0.59 µM)

[P] CC1(c2cc(C[C@H]3O[C@H](CO)[C@H](O)[C@H](n4cc(-c5ccc(F)c(F)c5F)nn4)[C@H]3OCC(=O)O)on2)CC1 [Example 2.44]
[Q] CO[C@@H]1[C@@H](n2cc(-c3ccc(C)c(F)c3)nn2)[C@@H](O)[C@@H](CO)O[C@@H]1CC1CC(C2CCN(C(=O)OC(C)(C)C)CC2)=NO1 (stereo partly shown) [Ex 1.136]
[R] CO[C@@H]1[C@@H](n2cc(-c3ccc(Br)c(F)c3F)nn2)[C@@H](O)[C@@H](CO)O[C@@H]1Cc1cc(C2CCN(C(C)=O)CC2)on1 [Ex 1.164]
Hey, quick one: sort these by IC50, low to high? Ranked list of labels, please, in the requested order.
P, R, Q

[A] CCOC(=O)N1CCC(c2cc(C[C@H]3O[C@H](CO)[C@H](O)[C@H](n4cc(-c5cc(F)c(Cl)c(F)c5)nn4)[C@H]3OC)no2)CC1 [Ex 1.199]
[B] CO[C@@H]1[C@@H](n2cc(-c3cc(F)c(C)c(F)c3)nn2)[C@@H](O)[C@@H](CO)O[C@@H]1CC1CC(C2CCN(C(=O)OC(C)(C)C)CC2)=NO1 (stereo partly shown) [Ex 1.135]
Which is greater in IC50, the first item A or the second item B ? Your answer should be the label attached to the chosen record.
B
(B: 9 µM, A: 5.99 µM)
